# Test system: INS1
# protocol_notes: beta cell apoptosis inhibitors, cytokine rescue, dose response, luminescence, retest (AID 449756);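 note: cell death triggered by IL-1 beta plus TNF-alpha plus IFN-gamma mixture; protective hits raise ATP signal compared with cytokine alone wells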
# Format: functional, cell-based
# experimental_conditions: Rattus norvegicus
Activity calls are given as the source filed them.
This listing pairs molecules with measured AC50.

QUERY: What does the record list as AC50 for COc1ccc(CCNc2ncnc3sccc23)cc1OC ?
RESULT: 710 nM (active)

* * *

# test_system: Heat shock factor protein 1 (Mus musculus, UniProt P38532)
# Sequence (P38532 whole entry): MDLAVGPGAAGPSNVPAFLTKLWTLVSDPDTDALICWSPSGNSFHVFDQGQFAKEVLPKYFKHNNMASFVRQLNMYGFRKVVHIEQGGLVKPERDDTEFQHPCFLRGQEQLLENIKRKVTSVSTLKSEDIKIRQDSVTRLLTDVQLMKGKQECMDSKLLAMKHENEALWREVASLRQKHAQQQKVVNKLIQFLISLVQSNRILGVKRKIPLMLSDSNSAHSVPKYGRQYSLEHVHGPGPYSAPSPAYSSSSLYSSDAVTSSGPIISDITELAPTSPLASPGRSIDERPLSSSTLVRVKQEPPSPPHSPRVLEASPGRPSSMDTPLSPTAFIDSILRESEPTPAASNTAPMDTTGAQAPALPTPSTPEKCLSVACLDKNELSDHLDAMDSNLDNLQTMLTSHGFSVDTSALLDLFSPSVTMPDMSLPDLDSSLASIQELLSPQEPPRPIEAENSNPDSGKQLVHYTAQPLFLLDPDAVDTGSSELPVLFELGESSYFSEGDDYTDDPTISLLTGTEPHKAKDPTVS
# protocol_notes: HSF1 potentiators in luciferase reporter cells, confirmation, cell-based, NIH3T3, luminescence, dose retest (AID 435004);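 note: stress induced by proteasome inhibitor MG132 added 30 min after compound; luciferase reporter driven by HSF1 response element in NIH3T3 cells; actives raise luminescence as potentiators of the MG132 stress response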
# Assay type: functional
Active and inactive are the calls of the source. Where a SMILES comes first, the peptide text is derived from it. The star is where a group is joined. Boc = CC(C)(C)OC(=O)*; OtBu = CC(C)(C)O*
Mark one answer only. Choices: active, inactive

QUERY: Could you please tell me the result logged for OC(CNCc1cccc(Cl)c1)c1ccccc1 (stereo not given) in this assay?
RESULT: inactive

QUERY: What about this molecule? CC1CC(=O)N(c2ccc(Br)cc2)C(=O)C1
RESULT: inactive

QUERY: What about this molecule? COC(=O)C(Cc1ccc(O)cc1)NC(=O)C(CC(=O)OC(C)(C)C)NC(=O)OC(C)(C)C (stereo not given) (Boc-Asp(OtBu)-Tyr-OMe; configuration not given here)
RESULT: inactive

QUERY: What about this molecule? COc1cc(-c2nnn(CC#N)n2)ccc1OCc1ccccc1
RESULT: active

QUERY: What about this molecule? N#CC(CO)(Cc1ccc(OC(F)F)cc1)c1nc2ccccc2[nH]1 (stereo not given)
RESULT: inactive
